Entry source: patent US20160052926A1

Target: Recombinant human FGFR2 (Homo sapiens)
Sequence (P21802 22-821): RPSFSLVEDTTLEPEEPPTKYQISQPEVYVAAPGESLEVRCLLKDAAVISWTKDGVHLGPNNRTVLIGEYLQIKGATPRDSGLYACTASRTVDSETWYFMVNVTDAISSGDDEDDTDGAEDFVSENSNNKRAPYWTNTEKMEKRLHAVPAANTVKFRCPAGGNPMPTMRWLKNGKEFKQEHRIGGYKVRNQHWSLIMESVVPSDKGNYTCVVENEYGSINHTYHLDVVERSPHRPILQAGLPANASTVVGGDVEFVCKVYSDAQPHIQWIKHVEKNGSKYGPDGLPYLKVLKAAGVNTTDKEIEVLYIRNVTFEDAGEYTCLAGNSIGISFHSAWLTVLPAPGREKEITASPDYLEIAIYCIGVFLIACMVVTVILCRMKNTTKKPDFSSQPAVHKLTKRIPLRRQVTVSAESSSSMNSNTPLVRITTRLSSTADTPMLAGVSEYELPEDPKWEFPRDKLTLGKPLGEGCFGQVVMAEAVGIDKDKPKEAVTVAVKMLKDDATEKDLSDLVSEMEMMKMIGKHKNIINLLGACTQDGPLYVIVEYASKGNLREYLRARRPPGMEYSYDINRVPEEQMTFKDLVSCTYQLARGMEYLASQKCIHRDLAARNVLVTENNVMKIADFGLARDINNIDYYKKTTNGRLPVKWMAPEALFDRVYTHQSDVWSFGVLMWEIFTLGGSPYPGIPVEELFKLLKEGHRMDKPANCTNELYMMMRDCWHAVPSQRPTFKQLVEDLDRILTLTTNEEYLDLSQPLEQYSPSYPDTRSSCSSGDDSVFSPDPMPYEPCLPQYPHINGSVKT
Experiment: Transcreener Kinase Assay of FGFR2
Format: biochemical
Conditions: read-out: FGFR2 (FP) IC50
Give measured log10(IC50) for each item. Keep answers brief.
Scale: decimal log of IC50, IC50 in nM.

Task item: Any idea what its log10(IC50) is? The compound is CNC(=O)c1cc(CCc2cnc(Nc3cnn(CCN(C)C)c3)nc2)c(F)c(OC)c1
Reply: 1.28

Task item: Any idea what its log10(IC50) is? The compound is CNC(=O)c1cc(CCc2cnc(Nc3cnn(C4CN(C)C4)c3)nc2)c(F)c(OC)c1
Reply: 1.11

Task item: Any idea what its log10(IC50) is? The compound is CNC(=O)c1cc(CCc2cnc(Nc3cnn(C)c3)nc2)c(Cl)c(OC)c1
Reply: 1.00

Task item: Any idea what its log10(IC50) is? The compound is CNC(=O)c1cc(CCc2cnc(Nc3nc(C4CC4)cs3)nc2)c(Cl)c(OC)c1
Reply: 1.72

Task item: Any idea what its log10(IC50) is? The compound is CNC(=O)c1cc(CCc2cnc(Nc3cnn(-c4ccc(C)nc4)c3)nc2)c(Cl)c(OC)c1
Reply: 1.08

Task item: Any idea what its log10(IC50) is? The compound is CCn1cc(Nc2ncc(CCc3cc(C(=O)NC)cc(OC)c3Cl)cn2)cn1
Reply: 0.78

Task item: Any idea what its log10(IC50) is? The compound is CNC(=O)c1cc(CCc2cnc(Nc3cnn(-c4ccccn4)c3)nc2)c(Cl)c(OC)c1
Reply: 1.20

Task item: Any idea what its log10(IC50) is? The compound is CNC(=O)c1cc(COc2cnc(Nc3ccc(N4C[C@@H](C)N[C@@H](C)C4)cc3)nc2)c(Cl)c(OC)c1
Reply: 0.60

Task item: Any idea what its log10(IC50) is? The compound is CCN1CCN(c2ccc(Nc3ccc(CCc4cc(OC)cc(C(=O)NOC)c4)cn3)cn2)CC1
Reply: 1.52

Task item: Any idea what its log10(IC50) is? The compound is CNC(=O)c1cc(CCc2cnc(Nc3cnn(CCN4CCOCC4)c3)nc2)c(F)c(OC)c1
Reply: 0.78

Task item: Any idea what its log10(IC50) is? The compound is CNC(=O)c1cc(CCc2cnc(Nc3ccc4nncn4c3)nc2)c(F)c(OC)c1
Reply: 1.43

Task item: Any idea what its log10(IC50) is? The compound is CNC(=O)c1cc(CCc2cnc(Nc3ccnc(C)c3)nc2)c(F)c(OC)c1
Reply: 0.85

Task item: Any idea what its log10(IC50) is? The compound is CNC(=O)c1cc(CCc2cnc(Nc3cnn(CCN4CCN(C)CC4)c3)nc2)c(Cl)c(OC)c1
Reply: 0.90

Task item: Any idea what its log10(IC50) is? The compound is CNC(=O)c1cc(CCc2cnc(Nc3cccc(N4CCOCC4)c3)nc2)c(F)c(OC)c1
Reply: 0.48

Task item: Any idea what its log10(IC50) is? The compound is CONC(=O)c1cc(CCc2cnc(Nc3ccc(N4C[C@@H](C)N[C@@H](C)C4)c(C)c3)nc2)cc(OC)c1
Reply: 0.70

Task item: Any idea what its log10(IC50) is? The compound is CNC(=O)c1cc(CCc2cnc(Nc3ccc(N4C[C@@H](C)N[C@@H](C)C4)cc3)nc2)c(F)c(OC)c1
Reply: 0.78
